# EC50 per record follows
- target.entity: T1, human CD40-Fc protein (human, biotinylated (sites not given) in the capture ELISA and the benchmark blocking ELISA; not biotinylated in the ligand blocking ELISA)
- T1 construct: also called biotinylated human CD40-Fc
- assay.name: capture ELISA: antibody captured on coated goat anti-human IgG F(ab')2, biotinylated human CD40-Fc 1.15 nM, streptavidin-HRP, OD(450-630)
Please reply with the bare figure in nM and do not write the unit itself.

1. humanized antibody huC1H1-V2 (antibody, human IgG2, kappa, V domains shown, Human IgG2 / kappa) VH: EVQLVESGGGLVKPGGSLRLSCAASGFTFSNYGISWVRQAPGKGLEWVSSISSGGDNTYYPDNVKGRFTISRDNAKNSLYLQMNSLRAEDTAVYYCARAGEKAMDYWGQGTLVTVSS VL: EIVLTQSPATLSLSPGERATLSCRASQTINNNLHWYQQKPGQAPRLLIKYASQSISGIPARFSGSGSGTDFTLTISSLEPEDFAVYFCQQFSSWPLTFGGGTKVEIKR; 0.424
2. humanized antibody huC1H1-V1 (antibody, human IgG2, kappa, V domains shown, Human IgG2 / kappa) VH: EVQLVESGGGLVKPGGSLRLSCAASGFTFSNYGISWVRQAPGKGLEWVASISSGGDNTYYPDNVKGRFTISRDNAKNSLYLQMNSLRAEDTAVYYCARAGEKAMDYWGQGTLVTVSS VL: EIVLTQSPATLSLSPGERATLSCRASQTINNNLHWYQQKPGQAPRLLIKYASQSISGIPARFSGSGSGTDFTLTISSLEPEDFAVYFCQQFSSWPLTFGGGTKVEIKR; 0.574
3. mouse anti-CD40 monoclonal antibody C1H1 (antibody, V domains shown, Parent mouse antibody from a hybridoma; the mouse constant regions are not; also called Mouse C1H1) VH: EVKLVESGGGLVKPGASLKLSCAASGFTFSNYGISWVRQTSDKRLEWVASISSGGDNTYYPDNVKGRFTISRENAKNTLYLQMSSLKSEDTALYYCARAGEKAMDYWGQGTSVTVSS VL: DIVLTQSPVTLSVTPGDSVSLSCRASQTINNNLHWYQQKSHESPRLLIKYASQSISGIPSRFSGSGSGTDFTLSINSVETEDFGIYFCQQFSSWPLTFGAGTKLELK; 0.141
4. chimeric antibody C1H1 (antibody, human IgG1, kappa, V domains shown, also called Chimeric C1H1) VH: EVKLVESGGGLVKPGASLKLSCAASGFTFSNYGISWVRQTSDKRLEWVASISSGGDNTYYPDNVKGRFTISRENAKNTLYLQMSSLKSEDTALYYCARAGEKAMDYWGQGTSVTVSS VL: DIVLTQSPVTLSVTPGDSVSLSCRASQTINNNLHWYQQKSHESPRLLIKYASQSISGIPSRFSGSGSGTDFTLSINSVETEDFGIYFCQQFSSWPLTFGAGTKLELKR; 0.198

Proceeding to the next binder to report its EC50.
Query block: Please give the measured EC50 for this binder: BM1 (dacetuzumab) (antibody, human IgG1, kappa, V domains shown, Benchmark antibody, prepared in-house; also called CD40-BM1; benchmark) VH: EVQLVESGGGLVQPGGSLRLSCAASGYSFTGYYIHWVRQAPGKGLEWVARVIPNAGGTSYNQKFKGRFTLSVDNSKNTAYLQMNSLRAEDTAVYYCAREGIYWWGQGTLVTVSS VL: DIQMTQSPSSLSASVGDRVTITCRSSQSLVHSNGNTFLHWYQQKPGKAPKLLIYTVSNRFSGVPSRFSGSGSGTDFTLTISSLQPEDFATYFCSQTTHVPWTFGQGTKVEIKR
Result block: 0.101

Just for reference, patent US20240398942A1 is where these values come from.
